System: PPARg:RXRa 270nM:90nM, anti-RXR (NR concentration 270 nM, RXRa partner concentration 90 nM)
Experiment: PBM binding z-score (relative to random genomic background probes); higher = stronger binding; sequences stand for … in GC…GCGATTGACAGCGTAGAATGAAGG
Class boundaries, taken from values of PBM binding z-score, are as follows: band A (below 2), band B (2 to below 4), band C (4 or more)

Q) Sort into band: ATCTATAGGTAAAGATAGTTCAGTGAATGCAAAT
A) band A

Q) Sort into band: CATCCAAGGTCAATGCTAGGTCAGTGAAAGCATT
A) band C

Q) Sort into band: TAGCCTAGGTCATGGGCCAGTATTCCACGCGAAC
A) band B

Q) Sort into band: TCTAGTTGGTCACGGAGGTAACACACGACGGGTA
A) band A

Q) Sort into band: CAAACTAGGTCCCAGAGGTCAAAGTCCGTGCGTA
A) band C

Q) Sort into band: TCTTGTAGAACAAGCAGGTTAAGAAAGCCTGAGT
A) band A

Q) Sort into band: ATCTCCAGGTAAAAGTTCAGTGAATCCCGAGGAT
A) band C

Q) Sort into band: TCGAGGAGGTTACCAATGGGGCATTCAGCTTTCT
A) band A

Q) Sort into band: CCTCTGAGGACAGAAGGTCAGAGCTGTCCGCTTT
A) band A

Q) Sort into band: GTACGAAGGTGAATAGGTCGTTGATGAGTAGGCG
A) band A

Q) Sort into band: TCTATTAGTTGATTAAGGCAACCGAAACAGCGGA
A) band B

Q) Sort into band: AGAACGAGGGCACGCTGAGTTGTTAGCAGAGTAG
A) band A

Q) Sort into band: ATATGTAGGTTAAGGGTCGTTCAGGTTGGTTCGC
A) band C

Q) Sort into band: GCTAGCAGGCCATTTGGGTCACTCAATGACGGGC
A) band A

Q) Sort into band: CCAGACACGTGAGAAGGTAACTCAGCCTCGATTA
A) band A

Q) Sort into band: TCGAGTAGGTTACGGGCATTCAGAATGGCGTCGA
A) band A

Q) Sort into band: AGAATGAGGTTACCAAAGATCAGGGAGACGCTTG
A) band B

Q) Sort into band: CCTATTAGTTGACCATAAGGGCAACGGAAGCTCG
A) band A

Q) Sort into band: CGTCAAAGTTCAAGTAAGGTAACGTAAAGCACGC
A) band C

Q) Sort into band: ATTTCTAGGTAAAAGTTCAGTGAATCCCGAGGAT
A) band C

Q) Sort into band: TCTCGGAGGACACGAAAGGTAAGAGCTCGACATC
A) band A

Q) Sort into band: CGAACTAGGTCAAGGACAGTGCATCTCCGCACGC
A) band C

Q) Sort into band: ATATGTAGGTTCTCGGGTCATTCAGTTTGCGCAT
A) band B

Q) Sort into band: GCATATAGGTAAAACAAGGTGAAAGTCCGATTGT
A) band A

----------
Test system: PPARg DBDmut:RXRa IVT, anti-PPARg (DBD mutation: PPARg1 K132A/R137A, NR concentration 270 nM, RXRa partner concentration 90 nM)
Assay: PBM binding z-score (relative to random genomic background probes); higher = stronger binding; sequences stand for … in GC…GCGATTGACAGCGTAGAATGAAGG
Assignment: determine reported PBM binding z-score for the given sequences.
Quick one: just the number, no unit, thanks!

Reported PBM binding z-score ( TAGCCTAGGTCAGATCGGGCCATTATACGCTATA ) = -0.598

Reported PBM binding z-score ( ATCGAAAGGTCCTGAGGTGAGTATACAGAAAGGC ) = 0.834

Reported PBM binding z-score ( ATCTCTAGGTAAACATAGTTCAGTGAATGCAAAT ) = 0.983

Reported PBM binding z-score ( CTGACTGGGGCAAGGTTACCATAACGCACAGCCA ) = 0.266

Reported PBM binding z-score ( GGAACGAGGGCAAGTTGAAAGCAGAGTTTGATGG ) = -0.0232

Reported PBM binding z-score ( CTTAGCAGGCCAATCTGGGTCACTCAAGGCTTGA ) = 1.49

Reported PBM binding z-score ( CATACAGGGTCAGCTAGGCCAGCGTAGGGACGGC ) = 0.338

Reported PBM binding z-score ( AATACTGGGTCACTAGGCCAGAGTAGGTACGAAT ) = 5.62

Reported PBM binding z-score ( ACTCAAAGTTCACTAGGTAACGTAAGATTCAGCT ) = 1.81

Reported PBM binding z-score ( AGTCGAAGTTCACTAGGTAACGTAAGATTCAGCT ) = 0.653

Reported PBM binding z-score ( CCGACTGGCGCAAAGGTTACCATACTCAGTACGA ) = -1.09

Reported PBM binding z-score ( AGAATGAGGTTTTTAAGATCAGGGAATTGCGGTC ) = 0.355

Reported PBM binding z-score ( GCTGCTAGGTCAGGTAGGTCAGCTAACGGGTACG ) = -0.274

Reported PBM binding z-score ( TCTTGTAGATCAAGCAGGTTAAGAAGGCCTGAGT ) = 0.564

Reported PBM binding z-score ( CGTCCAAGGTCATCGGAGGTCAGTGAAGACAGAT ) = 0.99

Reported PBM binding z-score ( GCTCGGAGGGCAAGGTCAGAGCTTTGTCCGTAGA ) = -2.58

Reported PBM binding z-score ( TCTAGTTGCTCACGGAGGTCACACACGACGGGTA ) = 0.833

Reported PBM binding z-score ( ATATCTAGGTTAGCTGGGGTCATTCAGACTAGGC ) = 2.02

Reported PBM binding z-score ( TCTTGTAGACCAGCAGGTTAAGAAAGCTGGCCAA ) = -1.37

Reported PBM binding z-score ( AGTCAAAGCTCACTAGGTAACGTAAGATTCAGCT ) = 0.267

Reported PBM binding z-score ( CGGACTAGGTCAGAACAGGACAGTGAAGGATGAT ) = 3.25

Reported PBM binding z-score ( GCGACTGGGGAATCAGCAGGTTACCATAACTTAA ) = -0.564

Reported PBM binding z-score ( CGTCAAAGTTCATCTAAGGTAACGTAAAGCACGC ) = 0.673

Reported PBM binding z-score ( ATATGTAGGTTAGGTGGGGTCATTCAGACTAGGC ) = 2.01

Reported PBM binding z-score ( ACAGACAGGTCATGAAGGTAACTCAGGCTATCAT ) = 1.81

Reported PBM binding z-score ( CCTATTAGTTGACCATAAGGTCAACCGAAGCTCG ) = 2.56
